The origin of these recorded values is ChEMBL document CHEMBL4706545.

Test system: HeLa
assay.text: Cytotoxicity against human HeLa cells assessed as reduction in cell viability incubated for 48 hrs by MTT assay
Assay type: functional, cell-based
pIC50: −log10 of the molar value.
experimental.endpoint: pIC50

# compound.string, value.observed
records = [
    ("COc1ccc(CCn2nnc3c2C(C)(C)[C@@H]2CC[C@]4(C)[C@H](CC[C@@H]5[C@H]6[C@H]7OC[C@@]6(CCC7(C)C)CC[C@]54C)[C@@]2(C)C3)cc1", 4.37),
    ("COc1cc(Cn2nnc3c2C(C)(C)[C@@H]2CC[C@]4(C)[C@H](CC[C@@H]5[C@H]6[C@H]7OC[C@@]6(CCC7(C)C)CC[C@]54C)[C@@]2(C)C3)cc(OC)c1OC", 5.04),
    ("CCCCCCn1n[n+](C)c2c1C(C)(C)[C@@H]1CC[C@]3(C)[C@H](CC[C@@H]4[C@H]5[C@H]6OC[C@@]5(CCC6(C)C)CC[C@]43C)[C@@]1(C)C2", 5.61),
]
